- TARGET_OF_ASSAY: Claudin18.2-His protein (human)
- ASSAY_NAME: indirect ELISA on coated Claudin18.2-His
TEST_READOUT: EC50 (µg/mL)
Give the number; µg/mL is assumed, so skip it.

Example entries and their recorded answers appear below.
[
  {
    "BINDER": "254A8D5 (antibody, V domains shown) VH: EVMLVESGGGLVKPGGSLKLSCAASGFTFSSYTVSWVRQTPEKRLEWVATSIVGSTYTYFPDSVKGRFTISRDFAKNTLFLQMSSLRSEDTAMYYCSRLGRGNAMDYWGQGTSVSVSS VL: DIVMTQSPSSLTVTAGEKVTLNCRSSQSLLNSGNQKNYLTWYQQKPGQPPKLLIYWASTRESGVPDRFTGSGSGTDFTLTISSVQADDLAVYYCQNGYSYPFTFGSGTKLEIK",
    "EC50 / µg/mL": 0.0252
  },
  {
    "BINDER": "200A4H8 (antibody, V domains shown) VH: QVQLKQSGPGLVQPSQSLSITCTVSGFSLTRYGVHWVRQSPGKGLEWLGVIWSGGNTDYNAAFISRLNIRKDNSKSQVFFKMNSLKPNDTAIYYCARAAYFGNSFDYWGQGTTLTVSS VL: DIVMTQSPSSLPVTAGEKVTMSCKSSQSLLNSGNQKNYLTWYQQKPGQPPKLLIYWASTRDSGVPDRFTGSGSGTDFTLTISSVQAEDLAVYYCQNNYIYPLTFGAGTKLELK",
    "EC50 / µg/mL": 0.0105
  }
]

Proceed to the following item.
What measured EC50 goes with 392C2F10 (antibody, V domains shown) VH: EVQLQQSGPELVKPGASMKISCKASGYSFTGYTMNWVKQSLGKNLEWIGLINPFNGGTTYNQKFKGKATLTVDKSSSTAYMELLSLTSDDSAVYYCTRGDYWGQGTTLTVSS VL: DIVMTQSPSSLTVTAGEKVTMSCKSSQSLLNSGNQKNYLTWYQQKPGQPPKLLIYWASTRESGVPDRFAGSGSGTDFTLTISSVQAEDLAVYYCQSDYSYPTFGAGTKLELK ? 0.0153
